Data origin: patent US20100267827A1

Measured % of BACE activity of individual entries
- MEASUREMENT TARGET: rhBACE-1 β-Secretase recombinant human (Homo sapiens)
- Construct: purchased R&D Systems 931-AS
- Sequence (P56817 46-457 limits assumed): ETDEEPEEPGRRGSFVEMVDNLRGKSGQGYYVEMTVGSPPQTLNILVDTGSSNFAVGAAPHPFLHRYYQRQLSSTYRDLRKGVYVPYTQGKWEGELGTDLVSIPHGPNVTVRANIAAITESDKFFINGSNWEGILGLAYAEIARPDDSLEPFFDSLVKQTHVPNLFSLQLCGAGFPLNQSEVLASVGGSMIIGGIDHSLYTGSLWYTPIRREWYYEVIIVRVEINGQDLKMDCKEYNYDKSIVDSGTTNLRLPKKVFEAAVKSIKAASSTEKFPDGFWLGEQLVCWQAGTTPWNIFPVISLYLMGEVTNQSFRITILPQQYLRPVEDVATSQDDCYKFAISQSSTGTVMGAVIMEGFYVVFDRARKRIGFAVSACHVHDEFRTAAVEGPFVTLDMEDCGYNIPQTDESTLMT
- METHOD SUMMARY: BACE assay (FRET)
- Format: biochemical
- EXPERIMENTAL PARAMETERS: 10 μM compound; percentage of enzyme activity remaining

>  <SMILES>
COCOC(=O)c1ccc(OC)c(OC/C=C(\C)CCC=C(C)C)c1

>  <UNIT ABBREVIATION>
%

>  <% of BACE activity>
0

$$$$
>  <SMILES>
COc1ccc(C(=O)OC/C=C(\C)CCC=C(C)C)cc1OC/C=C(\C)CCC=C(C)C

>  <UNIT ABBREVIATION>
%

>  <% of BACE activity>
8

$$$$
>  <SMILES>
COc1ccc(C(=O)OCC=C(C)C)cc1OC/C=C(\C)CCC=C(C)C

>  <UNIT ABBREVIATION>
%

>  <% of BACE activity>
0

$$$$
>  <SMILES>
COC(=O)c1ccc(OC)c(OC/C=C(\C)CCC=C(C)C)c1C/C=C(\C)CCC=C(C)C

>  <UNIT ABBREVIATION>
%

>  <% of BACE activity>
82

$$$$
>  <SMILES>
CC(=O)Nc1ccc(C(=O)O)cc1OC/C=C(\C)CC/C=C(\C)CCC=C(C)C

>  <UNIT ABBREVIATION>
%

>  <% of BACE activity>
29

$$$$
>  <SMILES>
CC(C)=CCC/C(C)=C/COc1cc(C(=O)O)ccc1O

>  <UNIT ABBREVIATION>
%

>  <% of BACE activity>
89

$$$$
>  <SMILES>
CC(C)=CCC/C(C)=C/CC/C(C)=C/COc1cc(C(=O)O)ccc1N

>  <UNIT ABBREVIATION>
%

>  <% of BACE activity>
79

$$$$
>  <SMILES>
COC(=O)c1ccc(N)c(OC/C=C(\C)CC/C=C(\C)CCC=C(C)C)c1

>  <UNIT ABBREVIATION>
%

>  <% of BACE activity>
80

$$$$
>  <SMILES>
COC(=O)c1ccc(N)c(OC/C=C(\C)CCC=C(C)C)c1

>  <UNIT ABBREVIATION>
%

>  <% of BACE activity>
81

$$$$
>  <SMILES>
CCOC(=O)c1ccc(O)c(OC/C=C(\C)CCC=C(C)C)c1

>  <UNIT ABBREVIATION>
%

>  <% of BACE activity>
50

$$$$
>  <SMILES>
CC(C)=CCC/C(C)=C/COc1cccc(C(=O)O)c1

>  <UNIT ABBREVIATION>
%

>  <% of BACE activity>
36.5

$$$$
>  <SMILES>
COc1ccc(C(=O)NC/C=C(\C)CCC=C(C)C)cc1OC/C=C(\C)CCC=C(C)C

>  <UNIT ABBREVIATION>
%

>  <% of BACE activity>
42

$$$$
>  <SMILES>
COC(=O)c1ccc(OC)c(OC/C=C(\C)CCC=C(C)C)c1

>  <UNIT ABBREVIATION>
%

>  <% of BACE activity>
18.5

$$$$
>  <SMILES>
CC(C)=CCC/C(C)=C/CC/C(C)=C/COc1ccc(C(=O)O)cc1OC/C=C(\C)CC/C=C(\C)CCC=C(C)C

>  <UNIT ABBREVIATION>
%

>  <% of BACE activity>
26

$$$$
>  <SMILES>
COC(=O)c1cccc(OC/C=C(\C)CCC=C(C)C)c1

>  <UNIT ABBREVIATION>
%

>  <% of BACE activity>
0

$$$$
>  <SMILES>
COC(=O)c1ccc(NC(C)=O)c(OC/C=C(\C)CC/C=C(\C)CCC=C(C)C)c1

>  <UNIT ABBREVIATION>
%

>  <% of BACE activity>
0

$$$$
>  <SMILES>
COC(=O)c1ccc(NC(C)=O)c(OC/C=C(\C)CCC=C(C)C)c1

>  <UNIT ABBREVIATION>
%

>  <% of BACE activity>
0

$$$$

---

- MEASUREMENT TARGET: rhBACE-1 β-Secretase recombinant human (Homo sapiens)
- Construct: purchased R&D Systems 931-AS
- METHOD SUMMARY: BACE assay (FRET)
- Format: biochemical
- EXPERIMENTAL PARAMETERS: 1 μM compound; percentage of enzyme activity remaining
Measured % of BACE activity of individual entries
MEASUREMENT TYPE: % of BACE activity (%)

>  <SMILES>
COC(=O)c1ccc(N)c(OC/C=C(\C)CC/C=C(\C)CCC=C(C)C)c1

>  <MEASUREMENT TARGET>
rhBACE-1 β-Secretase recombinant human (Homo sapiens)

>  <MEASUREMENT TYPE>
% of BACE activity

>  <DATA VALUE>
100

$$$$
>  <SMILES>
COc1ccc(C(=O)OCC=C(C)C)cc1OC/C=C(\C)CCC=C(C)C

>  <MEASUREMENT TARGET>
rhBACE-1 β-Secretase recombinant human (Homo sapiens)

>  <MEASUREMENT TYPE>
% of BACE activity

>  <DATA VALUE>
49

$$$$
>  <SMILES>
COC(=O)c1ccc(OC)c(OC/C=C(\C)CCC=C(C)C)c1C/C=C(\C)CCC=C(C)C

>  <MEASUREMENT TARGET>
rhBACE-1 β-Secretase recombinant human (Homo sapiens)

>  <MEASUREMENT TYPE>
% of BACE activity

>  <DATA VALUE>
86.5

$$$$
>  <SMILES>
CCOC(=O)c1ccc(O)c(OC/C=C(\C)CCC=C(C)C)c1

>  <MEASUREMENT TARGET>
rhBACE-1 β-Secretase recombinant human (Homo sapiens)

>  <MEASUREMENT TYPE>
% of BACE activity

>  <DATA VALUE>
100

$$$$

---

- MEASUREMENT TARGET: recombinant human glycogen synthase kinase 3 beta (Homo sapiens)
- Sequence (P49841 whole entry): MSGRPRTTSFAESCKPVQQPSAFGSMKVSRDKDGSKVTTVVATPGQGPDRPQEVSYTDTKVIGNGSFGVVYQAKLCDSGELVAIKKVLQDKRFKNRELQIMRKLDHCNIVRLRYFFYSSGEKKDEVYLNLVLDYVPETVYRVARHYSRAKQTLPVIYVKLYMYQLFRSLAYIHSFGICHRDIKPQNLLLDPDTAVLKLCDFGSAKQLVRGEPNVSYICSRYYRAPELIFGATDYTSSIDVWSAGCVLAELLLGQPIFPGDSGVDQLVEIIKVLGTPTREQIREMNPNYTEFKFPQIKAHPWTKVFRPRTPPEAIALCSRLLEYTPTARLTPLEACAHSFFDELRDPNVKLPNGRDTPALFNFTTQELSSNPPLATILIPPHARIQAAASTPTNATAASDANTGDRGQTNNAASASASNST
- METHOD SUMMARY: GSK-3 beta inhibition assay
- Assay type: biochemical
- EXPERIMENTAL PARAMETERS: 0.5 h; 25 μM compound; percentage of enzyme activity remaining

>  <SMILES>
COc1ccc(C(=O)OC/C=C(\C)CCC=C(C)C)cc1OC/C=C(\C)CCC=C(C)C

>  <remaining activity at 25 µM / %>
84.8

$$$$
>  <SMILES>
CC(C)=CCC/C(C)=C/COc1cc(C(=O)O)ccc1O

>  <remaining activity at 25 µM / %>
90.8

$$$$
>  <SMILES>
CC(C)=CCC/C(C)=C/CC/C(C)=C/COc1cc(C(=O)O)ccc1N

>  <remaining activity at 25 µM / %>
90.4

$$$$
>  <SMILES>
COc1ccc(C(=O)OCC=C(C)C)cc1OC/C=C(\C)CCC=C(C)C

>  <remaining activity at 25 µM / %>
54.6

$$$$
>  <SMILES>
COC(=O)c1ccc(N)c(OC/C=C(\C)CCC=C(C)C)c1

>  <remaining activity at 25 µM / %>
85.6

$$$$
>  <SMILES>
COC(=O)c1ccc(N)c(OC/C=C(\C)CC/C=C(\C)CCC=C(C)C)c1

>  <remaining activity at 25 µM / %>
91.7

$$$$
